The reported numbers originate from patent US8841413B2.

PROCEDURE_DETAILS: Stability in human plasma
Type: in vitro ADME
TEST_PARAMETERS: 2 μM, 37° C., 24 h
What % degradation in 24 h when incubated with human plasma was measured for each of the following?
// return numeric value only (unit: %, not printed)

Would you kindly share the measured % degradation in 24 h when incubated with human plasma for CCc1cc(OC)ccc1-c1ccc(CC(NC(=O)[C@H](CC(=O)O)NC(=O)[C@H](CO)NC(=O)[C@@H](NC(=O)C(C)(Cc2ccccc2F)NC(=O)[C@@H](NC(=O)CNC(=O)[C@H](CCC(N)=O)NC(=O)C2(NC(=O)[C@@H](N)Cc3c[nH]cn3)CC2)[C@@H](C)O)[C@@H](C)O)C(=O)NC(Cc2ccc(-c3ccccc3C)cc2)C(N)=O)cc1 (single isomer, unassigned) ?
00

Similarly, CCc1cc(OC)ccc1-c1ccc(CC(NC(=O)[C@H](CC(=O)O)NC(=O)[C@H](CO)NC(=O)[C@@H](NC(=O)[C@H](Cc2ccccc2)NC(=O)[C@@H](NC(=O)CNC(=O)[C@H](CCC(N)=O)NC(=O)[C@H](CO)NC(=O)[C@@H](N)Cc2c[nH]cn2)[C@@H](C)O)[C@@H](C)O)C(=O)NC(Cc2ccc(-c3ccccc3F)cc2)C(N)=O)cc1 (single isomer, unassigned) ?
80

Similarly, CCc1cc(OC)ccc1-c1ccc(CC(NC(=O)[C@H](CC(=O)O)NC(=O)[C@H](CO)NC(=O)[C@@H](NC(=O)C(C)(Cc2ccccc2F)NC(=O)[C@@H](NC(=O)CNC(=O)[C@H](CCC(N)=O)NC(=O)[C@H](C)NC(=O)[C@@H](N)Cc2c[nH]cn2)[C@@H](C)O)[C@@H](C)O)C(=O)NC(Cc2ccc(-c3ccccc3C)nc2)C(N)=O)cc1 (single isomer, unassigned) ?
71
